molecular target: human CD33 P46L (human, UniProt P20138 18-364); test: flow cytometry, mutant on cells, IgG
Sequence (P20138 18-364 P46L limits assumed): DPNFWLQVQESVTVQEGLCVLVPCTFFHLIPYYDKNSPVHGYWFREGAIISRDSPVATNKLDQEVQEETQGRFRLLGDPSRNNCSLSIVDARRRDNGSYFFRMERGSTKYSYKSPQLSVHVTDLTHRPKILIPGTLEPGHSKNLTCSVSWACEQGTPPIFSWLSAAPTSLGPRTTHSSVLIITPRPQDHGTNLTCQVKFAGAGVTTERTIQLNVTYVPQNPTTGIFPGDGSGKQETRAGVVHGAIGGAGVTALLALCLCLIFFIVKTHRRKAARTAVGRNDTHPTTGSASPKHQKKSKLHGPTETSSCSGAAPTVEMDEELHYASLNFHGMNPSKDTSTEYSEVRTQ
Exercise: for every item that follows, state its recorded Mean % WT Binding.
One number for each entry, in % WT binding.

Refmab #3 (antibody, human IgG1, V domains shown, Tested in IgG format; human IgG1 Fc silent (PG-LALA)) VH: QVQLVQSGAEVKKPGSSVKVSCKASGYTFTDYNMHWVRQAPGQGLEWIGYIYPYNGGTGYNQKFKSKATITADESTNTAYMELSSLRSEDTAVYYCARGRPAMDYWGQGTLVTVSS VL: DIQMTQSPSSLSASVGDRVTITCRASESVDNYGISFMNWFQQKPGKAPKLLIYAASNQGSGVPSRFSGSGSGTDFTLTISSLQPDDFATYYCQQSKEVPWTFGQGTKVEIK | 0.7

Kindly give each listed record's Mean % WT Binding.
1. Refmab #1 (antibody, human IgG1, V domains shown, Tested in IgG format; human IgG1 (Absolute Antibody hP67.6, Cat. No. Ab00283-10.0); also called hP67.6) VH: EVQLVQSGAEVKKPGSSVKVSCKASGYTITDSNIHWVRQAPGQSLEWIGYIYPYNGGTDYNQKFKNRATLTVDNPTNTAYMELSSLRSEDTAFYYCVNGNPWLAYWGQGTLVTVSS VL: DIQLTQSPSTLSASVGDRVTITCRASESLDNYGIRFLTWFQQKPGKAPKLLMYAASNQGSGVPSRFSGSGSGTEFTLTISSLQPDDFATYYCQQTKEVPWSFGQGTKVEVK
2. Refmab #2 (antibody, human IgG1, V domains shown, Tested in IgG format; human IgG1 Fc silent (PG-LALA)) VH: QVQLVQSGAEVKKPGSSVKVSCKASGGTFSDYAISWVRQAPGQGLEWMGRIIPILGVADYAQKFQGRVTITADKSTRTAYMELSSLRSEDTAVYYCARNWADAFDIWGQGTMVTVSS VL: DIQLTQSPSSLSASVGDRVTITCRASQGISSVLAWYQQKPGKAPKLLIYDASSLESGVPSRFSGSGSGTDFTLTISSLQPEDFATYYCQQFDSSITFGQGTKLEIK
3. Refmab #4 (antibody, human IgG1, V domains shown, Tested in IgG format; human IgG1 Fc silent (PG-LALA)) VH: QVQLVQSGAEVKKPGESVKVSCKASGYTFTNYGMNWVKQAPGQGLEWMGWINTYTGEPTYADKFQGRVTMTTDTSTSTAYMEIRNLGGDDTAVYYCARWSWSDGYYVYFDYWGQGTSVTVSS VL: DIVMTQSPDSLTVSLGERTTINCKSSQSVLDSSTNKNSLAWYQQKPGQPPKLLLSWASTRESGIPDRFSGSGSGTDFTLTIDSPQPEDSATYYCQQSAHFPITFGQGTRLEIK

[reply]
28.9
93.8
96.3
